src = patent US7553845B2

Where a name gives a salt, the structure may show the parent alone.
Note to self: use y only for melting point readings below 200 °C; a reading exactly at 200 °C still gets n.

{"molecule": "COc1ccc2c(OC)c(C)c(C(=O)c3ccc(N)c(C(=O)O)c3)n2c1 (as salt: Na) (hydrate or solvate)", "qualitative_label": "n"}
{"molecule": "COC(=O)c1ccc2c(OC)c(C)c(C(=O)c3ccc([N+](=O)[O-])c(OC)c3)n2c1", "qualitative_label": "n"}
{"molecule": "COC(=O)c1c(C)c(C(=O)c2ccc([N+](=O)[O-])c(OC)c2)n2cccc(O)c12", "qualitative_label": "y"}
{"molecule": "COC(=O)c1ccc2c(OC)c(C)c(C(=O)c3ccc(N)c(OC)c3)n2c1", "qualitative_label": "y"}
{"molecule": "COc1ccc(-c2c(C)c(C(=O)c3ccc([N+](=O)[O-])c(OC)c3)n3cc(C(N)=O)ccc23)cc1", "qualitative_label": "n"}
{"molecule": "COC(=O)c1cc(C(=O)c2c(C)c(-c3cccs3)c3ccccn23)ccc1N", "qualitative_label": "y"}

* * *

Entries and their melting point values follow.
Structures can show the parent of a compound that is named as a salt.
measurement_type: melting point (°C)

{"compound": "COC(=O)c1c(C)c(C(=O)c2ccc([N+](=O)[O-])c(OC)c2)n2cc(OCc3ccccc3)ccc12", "val": 179}
{"compound": "CCOC(=O)COc1cccn2c(C(=O)c3ccc(N)c(OC)c3)c(C)c(C(=O)OC)c12", "val": 136}
{"compound": "COc1cc(C(=O)c2c(C)c(-c3cccs3)c3ccccn23)ccc1N (as salt: HCl) (hydrate or solvate)", "val": 219}
{"compound": "COC(=O)c1c(C)c(C(=O)c2ccc([N+](=O)[O-])c(OC)c2)n2cccc(OCc3ccccc3)c12", "val": 125}
